Listed molecules paired with reported IC50
- Assayed Target: LuxR (Aliivibrio fischeri, UniProt P35327)
- Sequence (P35327 whole entry): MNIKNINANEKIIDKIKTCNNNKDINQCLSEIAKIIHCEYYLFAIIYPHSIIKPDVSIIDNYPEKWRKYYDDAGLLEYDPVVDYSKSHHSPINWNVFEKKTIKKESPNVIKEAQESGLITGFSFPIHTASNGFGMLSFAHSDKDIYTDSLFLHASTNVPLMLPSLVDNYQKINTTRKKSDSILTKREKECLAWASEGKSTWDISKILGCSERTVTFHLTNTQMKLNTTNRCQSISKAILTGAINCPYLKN
- Experimental Protocol: LuxR antagonism reporter assay
Property Label: IC50

1. O=C(CCc1cccc(Br)c1)N[C@H]1CCOC1=O :: ~470 nM
2. O=C(CCc1cccc(C(F)(F)F)c1)N[C@H]1CCOC1=O :: ~470 nM
3. O=C(CCc1cccc(I)c1)N[C@H]1CCOC1=O :: ~470 nM

* * *

The following molecules are shown together with reported EC50 values.
- Assayed Target: LasR (Pseudomonas aeruginosa)
- Sequence (P25084 whole entry): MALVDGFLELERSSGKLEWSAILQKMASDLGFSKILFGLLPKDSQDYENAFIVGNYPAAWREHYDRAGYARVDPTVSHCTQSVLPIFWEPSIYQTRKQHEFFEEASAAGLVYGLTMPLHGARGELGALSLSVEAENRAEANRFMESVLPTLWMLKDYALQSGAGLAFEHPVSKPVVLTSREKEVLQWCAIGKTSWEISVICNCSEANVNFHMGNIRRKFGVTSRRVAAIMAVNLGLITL
- Experimental Protocol: LasR agonism reporter gene assay, E. coli DH5α
- Type: cell-based
Property Label: EC50

1. O=C(CCc1ccc2c(c1)OCO2)N[C@H]1CCOC1=O :: > 10 µM
2. O=C(CCc1ccc(I)cc1)N[C@H]1CCOC1=O :: > 10 µM
3. O=C(Cc1ccc(SC(F)(F)F)cc1)N[C@H]1CCOC1=O :: 3.4 µM
4. O=C(CCc1ccc(C(F)(F)F)cc1)N[C@H]1CCOC1=O :: > 10 µM
